All figures here come from patent US12492188B2.

Molecular target: human TLR9 (Homo sapiens, UniProt Q9NR96)
Construct: host or cells: HEK-Blue cells (HEK293-derived reporter line)
Sequence (Q9NR96 26-1032): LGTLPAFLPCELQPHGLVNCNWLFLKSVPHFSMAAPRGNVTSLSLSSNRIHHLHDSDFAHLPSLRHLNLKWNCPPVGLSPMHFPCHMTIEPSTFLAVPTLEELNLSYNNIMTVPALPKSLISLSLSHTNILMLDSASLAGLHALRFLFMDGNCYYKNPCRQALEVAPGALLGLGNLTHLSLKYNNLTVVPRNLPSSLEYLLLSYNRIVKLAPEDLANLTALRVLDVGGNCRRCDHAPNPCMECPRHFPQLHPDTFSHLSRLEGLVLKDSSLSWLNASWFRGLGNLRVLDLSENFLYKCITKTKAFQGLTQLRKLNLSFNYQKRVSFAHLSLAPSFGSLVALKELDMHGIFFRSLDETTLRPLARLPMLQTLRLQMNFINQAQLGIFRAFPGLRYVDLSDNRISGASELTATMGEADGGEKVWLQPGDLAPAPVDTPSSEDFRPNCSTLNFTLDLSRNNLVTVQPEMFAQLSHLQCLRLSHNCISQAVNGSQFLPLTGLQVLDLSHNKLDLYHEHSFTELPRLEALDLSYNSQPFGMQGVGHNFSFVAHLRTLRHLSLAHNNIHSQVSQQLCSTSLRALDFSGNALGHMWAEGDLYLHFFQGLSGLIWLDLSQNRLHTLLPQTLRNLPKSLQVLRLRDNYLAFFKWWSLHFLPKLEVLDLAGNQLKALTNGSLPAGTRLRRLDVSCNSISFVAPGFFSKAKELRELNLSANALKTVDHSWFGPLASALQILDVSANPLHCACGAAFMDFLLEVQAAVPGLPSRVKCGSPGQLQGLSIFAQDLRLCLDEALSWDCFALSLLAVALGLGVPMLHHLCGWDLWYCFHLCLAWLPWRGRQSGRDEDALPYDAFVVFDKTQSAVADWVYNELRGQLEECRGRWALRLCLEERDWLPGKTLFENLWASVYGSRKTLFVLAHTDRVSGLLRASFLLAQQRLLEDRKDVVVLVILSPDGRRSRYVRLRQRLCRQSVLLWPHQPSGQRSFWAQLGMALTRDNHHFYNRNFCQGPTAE
Experiment: TLR9 inhibition reporter assay (HEK-Blue cells, secreted embryonic alkaline phosphatase reporter)
Format: cell-based
Details: HEK-Blue cells overexpressing human TLR9, stimulated with ODN2006 5 nM, 22 hour incubation, reporter readout
Measurement kind: IC50 (nM)

The examples below pair each entry with its known result.
>  <Compound>
COc1ccc(-c2nc3c(C)cc(C4CC5CCC(C4)N5C4CCN(C5CC5)CC4)cc3n2C)cc1OC (stereo not drawn)

>  <System name>
human TLR9 (Homo sapiens, UniProt Q9NR96)

>  <Endpoint value>
130

$$$$
>  <Compound>
Cc1cc(C2CCN(C3CCCN(C4CCC4)CC3)CC2)cc2c1nc(-c1ccc(S(C)(=O)=O)cc1)n2C (single isomer, unassigned) [Example 110]

>  <System name>
human TLR9 (Homo sapiens, UniProt Q9NR96)

>  <Endpoint value>
83

$$$$
>  <Compound>
Cc1cc(-c2ccc(CN3CC4(C3)CN(C(C)C)C4)cc2)cc2c1nc(-c1ccc(S(C)(=O)=O)cc1)n2C

>  <System name>
human TLR9 (Homo sapiens, UniProt Q9NR96)

>  <Endpoint value>
97

$$$$
>  <Compound>
CCOP(=O)(OCC)c1ccc(-c2nc3c(C)cc(C4CCN(C5CCN(CC(C)C)CC5)CC4)cc3n2C)cc1

>  <System name>
human TLR9 (Homo sapiens, UniProt Q9NR96)

>  <Endpoint value>
140

$$$$

[a] COc1ccc(-c2nc3c(C)cc(C4CCN(C5CC6(C5)CN(C(C)C)C6)CC4)cc3n2C)cc1OC [Example 16, tris(2,2,2-trifluoroacetate)]
[b] CCn1c(-c2ccc(OC)c(OC)c2)nc2ccc(C3CCN(C4CCN(CC(C)C)CC4)CC3)cc21
Smaller IC50 value? Options are a and b # respond with the chosen item's label
a
(a: 100 nM, b: 150 nM)
